The reported numbers originate from paper PMC3707396.

assay: Passive permeability, PAMPA Explorer Kit; format: in vitro ADME; details: log of effective permeability, mean of n = 3
parameter: Log Peff (cm/s)

Reference set, count: 4
*Q* Using the record for O=C(Nc1cccc(Cc2ccccc2)c1)C1CCCN(C(=O)c2cc(C(F)(F)F)cc(C(F)(F)F)c2)C1 (stereo not drawn) [Compound 12b] , report its Log Peff.
*A* −4.7

*Q* Next: O=C(Nc1ccc(Cl)cc1)C1CCCN(C(=O)c2cc(C(F)(F)F)cc(C(F)(F)F)c2)C1 (stereo not drawn) [Compound 2, reference compound]
*A* −10

*Q* Next: O=C(Nc1ccc(Cl)cc1)C1CCCN(C(=O)c2cccc(-c3cccs3)c2)C1 (stereo not drawn) [Compound 8u]
*A* −10

*Q* Next: O=C(Nc1ccc(Cl)cc1)C1CCCN(C(=O)c2cccc(-c3ccco3)c2)C1 (stereo not drawn) [Compound 8a]
*A* −8.3

(a) O=C(CCNC(=O)c1cc(C(F)(F)F)cc(C(F)(F)F)c1)Nc1ccc(Cl)cc1 [Compound 19, reference compound]
(b) O=C(Nc1cccc(Oc2ccccc2)c1)C1CCCN(C(=O)c2cc(C(F)(F)F)cc(C(F)(F)F)c2)C1 (stereo not drawn) [Compound 12a]
*Q* Identify the item whose Log Peff is the smaller number: a or b The response must carry the label of the picked entry.
*A* a
(a: −10 cm/s, b: −5.1 cm/s)

====

experiment: Kinetic solubility; assay type: physicochemical
parameter: solubility

*Q* Using the record for O=C(Nc1ccc(Cl)cc1)C1CCCN(C(=O)c2cc(C(F)(F)F)cc(C(F)(F)F)c2)C1 (stereo not shown) [Compound 2, reference compound] , report its solubility.
*A* < 10 µg/mL

====

experiment: Passive permeability, PAMPA Explorer Kit; type: in vitro ADME; details: ranges not printed (Ref 17)
parameter: Permeability bin (high, medium or low)

Reference set, count: 4
*Q* Using the record for O=C(Nc1cccc(Cc2ccccc2)c1)C1CCCN(C(=O)c2cc(C(F)(F)F)cc(C(F)(F)F)c2)C1 (stereo not drawn) [Compound 12b] , report its Permeability bin (high, medium or low).
*A* MOD

*Q* Next: O=C(Nc1ccc(Cl)cc1)C1CCCN(C(=O)c2cc(C(F)(F)F)cc(C(F)(F)F)c2)C1 (stereo not drawn) [Compound 2, reference compound]
*A* LOW

*Q* Next: O=C(Nc1ccc(Cl)cc1)C1CCCN(C(=O)c2cccc(-c3cccs3)c2)C1 (stereo not drawn) [Compound 8u]
*A* LOW

*Q* Next: O=C(CCNC(=O)c1cc(C(F)(F)F)cc(C(F)(F)F)c1)Nc1ccc(Cl)cc1 [Compound 19, reference compound]
*A* LOW

Here is the next item to consider.
*Q* Using the record for O=C(Nc1ccc(Cl)cc1)C1CCCN(C(=O)c2cccc(-c3ccco3)c2)C1 (stereo not drawn) [Compound 8a] , report its Permeability bin (high, medium or low).
*A* LOW
